Test system: Helicobacter pylori
Assay: Minimum inhibitory concentration that inhibited macroscopic colony growth of Helicobacter pylori
Format: functional
experimental readout: MIC (µg/mL)
# output: bare number, implied unit µg/mL

Check out these entries, answers already filled in.
Which MIC value is on record for CC(=O)NCc1ccc(-c2csc(NC(=N)NCCc3ccccc3NC(C)=O)n2)o1 ?
4.1

Sample CC(=O)NCc1ccc(-c2csc(NC(=N)NCCc3ccccc3N)n2)o1 — what was its MIC?
1.01

Given the compound COc1ccccc1CC/N=C(\N)Nc1nc(-c2cc(C)c(CNC(C)=O)o2)cs1 , what is its reported MIC?
0.03

What does the record list as MIC for COc1ccc(C/N=C(\N)Nc2nc(-c3ccc(CNC(C)=O)o3)cs2)cc1 ?
0.28

For COc1cccc(CC/N=C(\N)Nc2nc(-c3ccc(CNC(C)=O)o3)cs2)c1 , what is its reported MIC?
0.36

Could you share which MIC value was measured for COc1ccccc1/N=C(\N)Nc1nc(-c2ccc(CNC(C)=O)o2)cs1 ?
0.24

// query MIC value for entry CC(=O)NCc1ccc(-c2csc(NC(=N)NCCc3cccs3)n2)o1
0.112

Find the recorded MIC belonging to COc1ccccc1CC/N=C(\N)Nc1nc(-c2ccc(CNC(C)=O)o2)cs1 and report it.
0.052

Request the reported MIC associated with Cc1ncc([N+](=O)[O-])n1CCO
5.4

Now consider the entry below.
Return reported MIC; argument: COc1ccccc1CC/N=C(\N)Nc1nc(-c2cc(CNC(C)=O)co2)cs1
2.21
